- assay.explanation: Acute toxicity assay in mice, oral administration (Example 10)
- test.parameters: both sexes, mouse, in vivo, 5000 mg/kg; oral administration, Kunming mice
readout.name: LD50 at 14 days

INSERT INTO results (compound, value) VALUES
  ('Cc1ccc(C(=O)N[C@@H](Cc2ccccc2)C(=O)O)cc1[N+](=O)[O-]', '> 5000 mg/kg');

----------
- assay.explanation: Mice acute toxicity assay, intravenous administration (Example 9)
- test.parameters: both sexes, Kunming, mouse, in vivo, Bliss algorithm, read-out: LD50 95% confidence limits
readout.name: LD50 at 14 days

INSERT INTO results (compound, readout_name, value) VALUES
  ('Cc1ccc(C(=O)N[C@@H](Cc2ccccc2)C(=O)O)cc1[N+](=O)[O-]', 'LD50 at 14 days', '249 to 291 mg/kg');

meta.source: patent US10512627B2
